system: Malme-3M; assay: NCI tumour cell line growth inhibition, 48 h
Calls of active or inactive are those of the source. No stated cut-off is given here; in the data, active = GI50 up to about 1.1 µM and inactive = higher.
Exercise: state measured GI50 for each of the compounds provided.

{"columns": ["Compound", "GI50"],
 "data": [
  ["Cn1cc(NC(=O)c2cc(NC(=O)CCCCCCCCCCC(=O)Nc3cc(C(=O)Nc4cc(C(=O)NCCC(=N)N)n(C)c4)n(C)c3)cn2C)cc1C(=O)NCCC(=N)N", "2.18 µM (inactive)"],
  ["COC(=O)C1=C(O)C(C(=O)OC)[C@]2(O)[C@@H](C(=O)OC)[C@H]1[C@H](C)[C@@H](c1ccccc1)[C@@H]2C(=O)OC (stereo partly drawn)", "42.2 µM (inactive)"]
]}

# ---- query compound ----
Asked: Using the record for CCOC(=O)C(C)c1nc2cc(C(F)(F)F)ccc2[nH]c1=O (stereo not drawn) , report its GI50.
Given back: > 100 µM (inactive)

FYI, the data here is from ChEMBL document CHEMBL1201862.
